test.method.notes: Cmax in Sprague-Dawley rat at 1 mg/kg,iv measured upto 24 hrs by UPLC-MS/MS analysis
Type: ADME, organism-based
Design: dose 1 mg/kg, time < 24 hrs, route iv
test.settings: in vivo
measured.property: Cmax (µM)
Write down the numeric answer in µM and omit the unit.

Looking up COC(=O)N[C@H](C(=O)N[C@@H](Cc1ccccc1)[C@@H](O)CN(Cc1ccc(-c2ccccn2)cc1)NC(=O)[C@@H](NC(=O)OC)C(C)(C)C)C(C)(C)C , I found its Cmax recorded as 2.51

====

test.method.notes: Aqueous solubility of compound at pH 4 by UPLC analysis
Type: physicochemical
test.settings: aqueous medium, read-out: solubility
measured.property: solubility

Consider COC(=O)N[C@H](C(=O)N[C@@H](Cc1ccccc1)[C@H](CN(Cc1ccc(-c2ccccn2)cc1)NC(=O)[C@@H](NC(=O)OC)C(C)(C)C)OC(=O)OC(OC(=O)[C@H](C(C)C)N(C)C)C(C)C)C(C)(C)C (stereo in doubt; 5g) . Its measured solubility is 140 µg/mL

Documented solubility of COC(=O)N[C@H](C(=O)N[C@@H](Cc1ccccc1)[C@H](CN(Cc1ccc(-c2ccccn2)cc1)NC(=O)[C@@H](NC(=O)OC)C(C)(C)C)OC(=O)OC(OC(=O)[C@H](N)C(C)C)C(C)C)C(C)(C)C (stereo in doubt; 5i) : > 1800 µg/mL

====

test.method.notes: Aqueous solubility of compound at pH 6.5 by UPLC analysis
Assay type: physicochemical
test.settings: buffer
Answer each item with its documented solubility.
Put down the number, then write its unit next to it.

Reported solubility of COC(=O)N[C@H](C(=O)N[C@@H](Cc1ccccc1)[C@H](CN(Cc1ccc(-c2ccccn2)cc1)NC(=O)[C@@H](NC(=O)OC)C(C)(C)C)OC(=O)OC(OC(=O)[C@@H](NC(=O)[C@@H](N)C(C)C)C(C)C)C(C)C)C(C)(C)C (stereo in doubt; 6e) : 76 µg/mL

Recorded solubility (molecule COC(=O)N[C@H](C(=O)N[C@@H](Cc1ccccc1)[C@H](CN(Cc1ccc(-c2ccccn2)cc1)NC(=O)[C@@H](NC(=O)OC)C(C)(C)C)OC(=O)OC(OC(=O)C1(N)CC1)C(C)C)C(C)(C)C (stereo in doubt; 3y) ): 28 µg/mL

====

test.method.notes: Aqueous stability of the compound in acetate buffer at pH 4 assessed as compound half life measured after 24 hrs by UPLC analysis
Format: physicochemical
test.settings: acetate buffer, pH 4
measured.property: half-life (h)
A number alone suffices; assume h.

# half-life (compound: COC(=O)N[C@H](C(=O)N[C@@H](Cc1ccccc1)[C@H](CN(Cc1ccc(-c2ccccn2)cc1)NC(=O)[C@@H](NC(=O)OC)C(C)(C)C)OC(=O)OC(OC(=O)[C@H](C)N)C(C)C)C(C)(C)C (stereo in doubt; 3p) ) is 41.8

====

test.method.notes: Aqueous solubility of compound at pH 1 by UPLC analysis
Assay type: physicochemical
test.settings: buffer
Task for the reader: assign each of the following compounds its reported solubility.

So, COC(=O)N[C@H](C(=O)N[C@@H](Cc1ccccc1)[C@H](CN(Cc1ccc(-c2ccccn2)cc1)NC(=O)[C@@H](NC(=O)OC)C(C)(C)C)OC(=O)OC(OC(=O)[C@@H](N)CC(C)C)C(C)C)C(C)(C)C (stereo in doubt; 3u) ? Its solubility was > 1480 µg/mL

GET /value?item= COC(=O)N[C@H](C(=O)N[C@@H](Cc1ccccc1)[C@H](CN(Cc1ccc(-c2ccccn2)cc1)NC(=O)[C@@H](NC(=O)OC)C(C)(C)C)OC(=O)OC(OC(=O)[C@@H](N)C(C)C)C1CCCCC1)C(C)(C)C (stereo in doubt; 4o) &field=solubility returns > 2000 µg/mL

Lab note: measured solubility of COC(=O)N[C@H](C(=O)N[C@@H](Cc1ccccc1)[C@H](CN(Cc1ccc(-c2ccccn2)cc1)NC(=O)[C@@H](NC(=O)OC)C(C)(C)C)OC(=O)OC(OC(=O)[C@@H](NC(=O)[C@@H](N)C(C)C)C(C)C)C(C)C)C(C)(C)C (stereo in doubt; 6f) was > 1000 µg/mL

Lab note: measured solubility of COC(=O)N[C@H](C(=O)N[C@@H](Cc1ccccc1)[C@H](CN(Cc1ccc(-c2ccccn2)cc1)NC(=O)[C@@H](NC(=O)OC)C(C)(C)C)OC(=O)OC(OC(=O)[C@H](C(C)C)N(C)C)C(C)C)C(C)(C)C (stereo in doubt; 5g) was > 420 µg/mL

====

test.method.notes: AUClast in Sprague-Dawley rat at 1 mg/kg,iv measured upto 24 hrs by UPLC-MS/MS analysis
Type: ADME, organism-based
Design: time < 24 hrs, dose 1 mg/kg, route iv
test.settings: in vivo
measured.property: AUC(0-t) at 24 h (µM·h)
Could you give me the number in µM·h? Just the number is fine.

Entry COC(=O)N[C@H](C(=O)N[C@@H](Cc1ccccc1)[C@@H](O)CN(Cc1ccc(-c2ccccn2)cc1)NC(=O)[C@@H](NC(=O)OC)C(C)(C)C)C(C)(C)C [ATAZANAVIR] , AUC(0-t) at 24 h reported as 0.636

====

test.method.notes: Aqueous stability of the compound in acetate buffer at pH 4 assessed as compound half life measured after 24 hrs by UPLC analysis
Assay type: physicochemical
test.settings: buffer, pH 4, 24 h, 24 h
measured.property: t1/2

So, COC(=O)N[C@H](C(=O)N[C@@H](Cc1ccccc1)[C@H](CN(Cc1ccc(-c2ccccn2)cc1)NC(=O)[C@@H](NC(=O)OC)C(C)(C)C)OC(=O)OC(OC(=O)[C@@H](N)CC(C)C)C(C)C)C(C)(C)C (stereo in doubt; 3u) ? Its t1/2 was 59 h

Entry COC(=O)N[C@H](C(=O)N[C@@H](Cc1ccccc1)[C@H](CN(Cc1ccc(-c2ccccn2)cc1)NC(=O)[C@@H](NC(=O)OC)C(C)(C)C)OC(=O)OC(OC(=O)[C@@H](NC(=O)[C@@H](N)C(C)C)C(C)C)C(C)C)C(C)(C)C (stereo in doubt; 6f) — recorded t1/2 = 376.3 h

====

test.method.notes: Aqueous solubility of compound at pH 6.5 by UPLC analysis
Type: physicochemical
test.settings: aqueous medium, read-out: solubility
measured.property: solubility

Entry COC(=O)N[C@H](C(=O)N[C@@H](Cc1ccccc1)[C@H](CN(Cc1ccc(-c2ccccn2)cc1)NC(=O)[C@@H](NC(=O)OC)C(C)(C)C)OC(=O)OC(OC(=O)[C@@H](N)C(C)C)C(C)(C)C)C(C)(C)C (mixture of isomers) , solubility reported as < 1 µg/mL

The measured solubility associated with COC(=O)N[C@H](C(=O)N[C@@H](Cc1ccccc1)[C@H](CN(Cc1ccc(-c2ccccn2)cc1)NC(=O)[C@@H](NC(=O)OC)C(C)(C)C)OC(=O)OC(OC(=O)[C@@H](N)C(C)C)C1CCCCC1)C(C)(C)C (stereo in doubt; 4n) reads < 1 µg/mL

Entry under test: COC(=O)N[C@H](C(=O)N[C@@H](Cc1ccccc1)[C@@H](O)CN(Cc1ccc(-c2ccccn2)cc1)NC(=O)[C@@H](NC(=O)OC)C(C)(C)C)C(C)(C)C . Its solubility was < 1 µg/mL

Entry COC(=O)N[C@H](C(=O)N[C@@H](Cc1ccccc1)[C@H](CN(Cc1ccc(-c2ccccn2)cc1)NC(=O)[C@@H](NC(=O)OC)C(C)(C)C)OC(=O)OC(OC(=O)[C@H](C(C)C)N(C)C)C(C)C)C(C)(C)C (stereo in doubt; 5g) ; solubility = < 1 µg/mL

====

test.method.notes: Relative Cmax ratio of Atazanavir in Sprague-Dawley rat at 3 ml/kg,po measured upto 24 hrs by UPLC-MS/MS analysis
Assay type: ADME
test.settings: in vivo
measured.property: Ratio
// return just the number, without any unit appended

Kindly note the recorded Ratio for COC(=O)N[C@H](C(=O)N[C@@H](Cc1ccccc1)[C@H](CN(Cc1ccc(-c2ccccn2)cc1)NC(=O)[C@@H](NC(=O)OC)C(C)(C)C)OC(=O)OC(OC(=O)[C@@H](N)Cc1ccccc1)C(C)C)C(C)(C)C (stereo in doubt; 3w) , which is 7.8

The compound listed as COC(=O)N[C@H](C(=O)N[C@@H](Cc1ccccc1)[C@H](CN(Cc1ccc(-c2ccccn2)cc1)NC(=O)[C@@H](NC(=O)OC)C(C)(C)C)OC(=O)OC(OC(=O)[C@@H](NC(=O)[C@H](N)C(C)C)C(C)C)C(C)C)C(C)(C)C (stereo in doubt; 6h) has a reported Ratio of 1

compound COC(=O)N[C@H](C(=O)N[C@@H](Cc1ccccc1)[C@H](CN(Cc1ccc(-c2ccccn2)cc1)NC(=O)[C@@H](NC(=O)OC)C(C)(C)C)OC(=O)OC(OC(=O)[C@H](C(C)C)N(C)C)C(C)C)C(C)(C)C (stereo in doubt; 5h) , Ratio observed: 2.7

The reported value for COC(=O)N[C@H](C(=O)N[C@@H](Cc1ccccc1)[C@H](CN(Cc1ccc(-c2ccccn2)cc1)NC(=O)[C@@H](NC(=O)OC)C(C)(C)C)OC(=O)OC(OC(=O)[C@@H](N)C(C)C)C(C)C)C(C)(C)C (stereo in doubt; 3r) in terms of Ratio is 3.4
